species: Homo sapiens; experiment: Selectivity ratio of IC50 for human integrin alphavbeta6 receptor to IC50 for human integrin alphavbeta8 receptor
Recorded endpoint: Ratio IC50
Just the number, please, no unit after it.

Take a look at these entries with their results.
Answer with the recorded Ratio IC50 of `CC(C)C[C@@H]1NC(=O)[C@H](C)NC(=O)[C@H](CC(C)C)N(C)C(=O)[C@H]2CCCN2C(=O)[C@H](CC(C)C)NC(=O)[C@H](CC(=O)O)NC(=O)CNC(=O)[C@H](CCCNC(=N)N)NC1=O` only.
5.3

Answer with the recorded Ratio IC50 of `CC(C)C[C@@H]1NC(=O)[C@H](C)NC(=O)[C@H](C(C)C)N(C)C(=O)[C@H]2CCCN2C(=O)[C@H](CC(C)C)NC(=O)[C@H](CC(=O)O)NC(=O)CNC(=O)[C@H](CCCNC(=N)N)NC1=O` only.
1.6

Answer with the recorded Ratio IC50 of `CC(C)C[C@@H]1NC(=O)[C@H](CC(=O)O)NC(=O)CNC(=O)[C@H](CCCNC(=N)N)NC(=O)[C@H](C)NC(=O)[C@H](C)NC(=O)[C@H](C)NC(=O)[C@H](C)NC(=O)[C@@H]2CCCN2C(=O)[C@H]2CCCN2C1=O` only.
1.7

New cases:
Answer with the recorded Ratio IC50 of `CC(C)C[C@@H]1NC(=O)[C@H](C)NC(=O)[C@@H]2CCCN2C(=O)[C@@H](C(C)C)N(C)C(=O)[C@H](CC(C)C)NC(=O)[C@H](CC(=O)O)NC(=O)CNC(=O)[C@H](CCCNC(=N)N)NC1=O` only.
1.6

Answer with the recorded Ratio IC50 of CC(=O)NC1C[C@H]2C(=O)NCC(=O)N[C@@H](CC(C)C)C(=O)N[C@@H](CCCNC(=N)N)C(=O)NCC(=O)N[C@@H](CC(=O)O)C(=O)N[C@@H](CC(C)C)C(=O)N3CCC[C@@H]3C(=O)N2C1 (stereo not given in full) only.
21

The values you see were collected from ChEMBL document CHEMBL4411322.
